system: NCI-H460; assay: NCI tumour cell line growth inhibition, 48 h
Calls of active or inactive are those of the source. No stated cut-off is given here; in the data, active = GI50 up to about 1.1 µM and inactive = higher.
Answer with one of the outcomes 1 = active, 0 = inactive

Example entries and their recorded answers appear below.
Cc1c(O)c(OC2OC(CO)C(O)C(O)C2O)cc2c1CC[C@@H]1C2(C)C(=O)C[C@]2(C)[C@@H]([C@@](C)(O)C3CCC(C)(C)O3)[C@H](O)C[C@@]12C (some centres not stated): 0
COc1cc(Cn2c3c(c4cc(O)ccc42)C(=O)c2ccccc2C3=O)cc(OC)c1: 0

Record lookup: outcome of this test for Cc1cc(=O)oc2c(C3=NN(C=O)C(c4ccccc4)C3)c(O)ccc12 (configuration not stated) ?
0

Record lookup: outcome of this test for "COc1ccc2c(c1)CCc1c(-c3noc4c3CCc3cc(OC)ccc3-4)noc1-2" ?
0

Record lookup: outcome of this test for "Oc1c(Cl)c(Cl)c(O)c2c1CCCC2" ?
0

Record lookup: outcome of this test for O=C1OC(c2ccccc2)=NC1c1ccccc1 (configuration not stated) ?
0

Record lookup: outcome of this test for "O=C1OCC/C1=C/c1ccc(/N=N/c2c(O)ccc3ccccc23)cc1" ?
0

Record lookup: outcome of this test for CCOC(=O)c1cc(C2CCN(Cc3ccccc3)C2=O)c(C(=O)/C=C(/C)N)[nH]1 (configuration not stated) ?
0
